measurement protocol: Safety assay (body weight, tolerability) in Ba/F3 KIF5B-RET^G810R cell line tumor model
Type: in vivo
experimental context: 25 mg/kg p.o. QD × 13, day 0 (baseline)
reported endpoint: Average weight g (x ± S), Day 0 of administration (g)
Express it in g; write the number only.

* CC(C)n1cc(-c2ccc(CC(=O)Nc3cc(C(C)(C)C(F)(F)F)on3)cc2)c2c(N)ncnc21 [Compound T-3] | 19.9

Let's switch to this molecule now.
Name the recorded Average weight g (x ± S), Day 0 of administration of the item CC(C)n1nc(-c2ccc(NC(=O)Nc3cc(C(C)(C)C(F)(F)F)on3)cc2)c2c(N)ncnc21 [Compound T-2] in your answer.
19.6

----------
Test system: Ba/F3 FLT3-ITD^D835Y cells
measurement protocol: Cytotoxicity assay (CellTiter-Glo), Ba/F3 FLT3-ITD D835Y
Assay type: cell-based
experimental context: ratio of Ba/F3 parental IC50 to Ba/F3 FLT3-ITD^D835Y IC50
reported endpoint: Ba/F3 FLT3-ITD^D835Y Selectivity on parental generation
Write the value as a bare number.

Study these solved cases before continuing.
* CC(C)n1nc(-c2ccc(CC(=O)Nc3cc(C(C)(C)C(F)(F)F)on3)cc2)c2c(N)ncnc21 | 137.97
* CC(C)c1nc(-c2ccc(CC(=O)Nc3cc(C(C)(C)C(F)(F)F)on3)cc2)c2c(N)nccn12 | 32.03
* CC(C)n1cc(-c2ccc(CC(=O)Nc3cc(C(C)(C)C(F)(F)F)on3)cc2)c2c(N)ncnc21 | 218.67
* CC(C)n1nc(-c2ccc(CC(=O)Nc3cc(C(C)(C)C(F)(F)F)on3)cn2)c2c(N)ncnc21 | 32.63
* CC(C)n1nc(-c2ccc(CC(=O)Nc3cc(C(C)(C)C(F)(F)F)on3)c(F)c2)c2c(N)ncnc21 | 193.58
* CC(C)n1nc(-c2ccc(NC(=O)Nc3cc(C(C)(C)C(F)(F)F)on3)cc2)c2c(N)ncnc21 | 35.48

Print Ba/F3 FLT3-ITD^D835Y cells Ba/F3 FLT3-ITD^D835Y Selectivity on parental generation for CC(C)c1nc(-c2ccc(CC(=O)Nc3cc(C(C)(C)C(F)(F)F)on3)cc2)c2c(N)ncnn12 .
48.3

Print Ba/F3 FLT3-ITD^D835Y cells Ba/F3 FLT3-ITD^D835Y Selectivity on parental generation for CC(C)n1nc(-c2ccc(CC(=O)Nc3cc(C(C)(C)C(F)(F)F)no3)cn2)c2c(N)ncnc21 .
87.8

Print Ba/F3 FLT3-ITD^D835Y cells Ba/F3 FLT3-ITD^D835Y Selectivity on parental generation for CC(C)c1cc(-c2ccc(CC(=O)Nc3cc(C(C)(C)C(F)(F)F)on3)cc2)c2c(N)ncnn12 .
133.6

Print Ba/F3 FLT3-ITD^D835Y cells Ba/F3 FLT3-ITD^D835Y Selectivity on parental generation for CC(C)n1nc(-c2ccc(CC(=O)Nc3cc(C(C)(C)C(F)(F)F)no3)cc2)c2c(N)ncnc21 .
500.9

Print Ba/F3 FLT3-ITD^D835Y cells Ba/F3 FLT3-ITD^D835Y Selectivity on parental generation for CC(C)n1nc(-c2ccc(NC(=O)Nc3cc(C(F)(F)F)ccc3F)cc2)c2c(N)ncnc21 [AD80, reference compound] .
21.82

Print Ba/F3 FLT3-ITD^D835Y cells Ba/F3 FLT3-ITD^D835Y Selectivity on parental generation for [2H]C([2H])([2H])C(n1nc(-c2ccc(CC(=O)Nc3cc(C(C)(C)C(F)(F)F)no3)cc2)c2c(N)ncnc21)C([2H])([2H])[2H] .
307.7

Print Ba/F3 FLT3-ITD^D835Y cells Ba/F3 FLT3-ITD^D835Y Selectivity on parental generation for [2H]C([2H])([2H])C(n1cc(-c2ccc(CC(=O)Nc3cc(C(C)(C)C(F)(F)F)on3)cc2)c2c(N)ncnc21)C([2H])([2H])[2H] .
87.2

----------
assay target: RET V804M (Homo sapiens, UniProt P07949, V804M)
Sequence (P07949 29-1114 V804M): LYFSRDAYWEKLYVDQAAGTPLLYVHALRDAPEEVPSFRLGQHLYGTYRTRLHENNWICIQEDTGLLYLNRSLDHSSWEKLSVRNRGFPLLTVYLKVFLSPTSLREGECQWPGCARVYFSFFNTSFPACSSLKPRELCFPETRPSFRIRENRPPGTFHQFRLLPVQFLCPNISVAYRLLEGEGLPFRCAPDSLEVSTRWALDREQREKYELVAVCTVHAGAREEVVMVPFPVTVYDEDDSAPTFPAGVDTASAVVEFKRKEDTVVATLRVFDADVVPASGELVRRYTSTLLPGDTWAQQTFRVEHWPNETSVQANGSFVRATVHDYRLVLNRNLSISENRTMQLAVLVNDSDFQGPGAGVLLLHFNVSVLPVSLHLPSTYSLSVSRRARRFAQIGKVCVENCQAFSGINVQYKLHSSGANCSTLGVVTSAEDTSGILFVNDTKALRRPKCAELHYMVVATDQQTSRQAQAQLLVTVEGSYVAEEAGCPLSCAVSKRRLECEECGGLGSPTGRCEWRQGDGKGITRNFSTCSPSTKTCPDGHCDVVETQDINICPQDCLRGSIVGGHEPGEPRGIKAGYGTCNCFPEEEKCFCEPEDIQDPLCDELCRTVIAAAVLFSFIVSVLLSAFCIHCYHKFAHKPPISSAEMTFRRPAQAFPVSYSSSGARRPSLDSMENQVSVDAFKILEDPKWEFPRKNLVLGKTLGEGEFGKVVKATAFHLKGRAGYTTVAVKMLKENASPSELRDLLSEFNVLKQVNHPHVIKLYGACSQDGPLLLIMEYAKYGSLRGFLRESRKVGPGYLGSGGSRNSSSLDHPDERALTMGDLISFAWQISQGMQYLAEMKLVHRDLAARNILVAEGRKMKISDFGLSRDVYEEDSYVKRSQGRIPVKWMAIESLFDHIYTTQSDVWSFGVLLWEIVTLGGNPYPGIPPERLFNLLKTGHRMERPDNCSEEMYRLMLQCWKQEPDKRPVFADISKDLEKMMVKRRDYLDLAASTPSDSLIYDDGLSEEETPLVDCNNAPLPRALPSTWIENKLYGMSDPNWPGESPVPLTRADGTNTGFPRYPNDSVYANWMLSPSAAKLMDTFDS
measurement protocol: Inhibition of kinase, RET V804M (HTRF KinEASE-TK)
Procedure: Ret wt (Carna, Cat. No. 08-159-10 ug), RET (V804M), Active (Signalchem. Cat. No. R02—12GG), HTRF KinEASE-TK kit (Cisbio, Cat. No.62TK0PEC), CEP-32496 (MCE, Cat. No. HY-15200), ATP (Sigma. Cat. No. A7699), DMSO (Sigma, Cat. No. D8418-1L), DTT (Sigma, Cat. No. D0632), MgCl2(Sigma, Cat. No. M1028), 384-well plate (Labcyte, Cat. No. P-05525-BC). […]
reported endpoint: IC50

• CC(C)n1nc(-c2ccc(CC(=O)Nc3cc(C(C)(C)C(F)(F)F)on3)c(F)c2)c2c(N)ncnc21 [Compound T-6] = 0.5 to 1 nM
• [2H]C([2H])([2H])C(n1cc(-c2ccc(CC(=O)Nc3cc(C(C)(C)C(F)(F)F)on3)cc2)c2c(N)ncnc21)C([2H])([2H])[2H] [Compound T-12] = 1 to 10 nM
• CC(C)n1nc(-c2ccc(CC(=O)Nc3cc(C(C)(C)C(F)(F)F)on3)cc2)c2c(N)ncnc21 [Compound T-1] = ≤ 0.5 nM

Let's switch to this compound now.
Name the recorded IC50 of the item CC(C)c1nc(-c2ccc(CC(=O)Nc3cc(C(C)(C)C(F)(F)F)on3)cc2)c2c(N)nccn12 [Compound T-4] in your answer.
1 to 10 nM

----------
Measured GI50, listed per entry.
assay target: Ba/F3 FLT3-ITD cells (Homo sapiens, UniProt P36888, cells depend on it, form not given)
Construct: Ba/F3 FLT3-ITD IC50 (nM); other: CellTiter-Glo, 72 hrs
Sequence (P36888 1-993): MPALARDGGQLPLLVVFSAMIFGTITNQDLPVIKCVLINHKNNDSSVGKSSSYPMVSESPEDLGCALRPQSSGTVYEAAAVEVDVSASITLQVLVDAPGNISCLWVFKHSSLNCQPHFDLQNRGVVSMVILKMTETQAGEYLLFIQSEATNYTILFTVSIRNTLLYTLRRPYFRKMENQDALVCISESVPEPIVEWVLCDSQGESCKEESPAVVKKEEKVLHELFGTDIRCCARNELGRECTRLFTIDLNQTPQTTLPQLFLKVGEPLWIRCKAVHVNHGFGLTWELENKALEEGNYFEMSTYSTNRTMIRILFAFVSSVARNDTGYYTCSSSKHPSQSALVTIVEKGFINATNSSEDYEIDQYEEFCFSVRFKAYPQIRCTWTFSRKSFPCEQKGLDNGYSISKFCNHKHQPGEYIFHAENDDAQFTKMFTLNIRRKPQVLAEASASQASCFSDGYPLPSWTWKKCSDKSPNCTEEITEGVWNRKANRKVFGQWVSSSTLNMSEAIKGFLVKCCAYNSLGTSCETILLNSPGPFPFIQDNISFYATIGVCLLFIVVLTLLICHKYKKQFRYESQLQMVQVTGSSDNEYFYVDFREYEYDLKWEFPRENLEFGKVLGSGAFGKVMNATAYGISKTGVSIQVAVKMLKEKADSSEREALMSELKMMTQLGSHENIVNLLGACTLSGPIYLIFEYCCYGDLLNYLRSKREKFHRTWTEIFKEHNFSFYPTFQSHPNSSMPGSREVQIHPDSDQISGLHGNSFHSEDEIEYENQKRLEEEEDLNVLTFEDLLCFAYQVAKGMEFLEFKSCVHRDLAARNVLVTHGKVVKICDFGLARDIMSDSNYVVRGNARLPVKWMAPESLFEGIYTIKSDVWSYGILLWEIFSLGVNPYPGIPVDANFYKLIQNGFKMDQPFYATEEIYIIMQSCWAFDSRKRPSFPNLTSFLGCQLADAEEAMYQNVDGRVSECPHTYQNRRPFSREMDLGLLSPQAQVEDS
measurement protocol: Cytotoxicity assay (CellTiter-Glo), Ba/F3 FLT3-ITD
Type: cell-based
experimental context: CellTiter-Glo, 72 hrs; read-out: Ba/F3 FLT3-ITD IC50
Express it in nM; write the number only.

Study these solved cases before continuing.
• CC(C)c1nc(-c2ccc(CC(=O)Nc3cc(C(C)(C)C(F)(F)F)on3)cc2)c2c(N)nccn12 = 0.1
• CC(C)n1nc(-c2ccc(CC(=O)Nc3cc(C(C)(C)C(F)(F)F)on3)cn2)c2c(N)ncnc21 = 0.1
• CC(C)n1nc(-c2ccc(NC(=O)Nc3cc(C(F)(F)F)ccc3F)cc2)c2c(N)ncnc21 [AD80, reference compound] = 0.67
• CC(C)n1cc(-c2ccc(CC(=O)Nc3cc(C(C)(C)C(F)(F)F)on3)cc2)c2c(N)ncnc21 = 0.1
• [2H]C([2H])([2H])C(n1nc(-c2ccc(CC(=O)Nc3cc(C(C)(C)C(F)(F)F)no3)cc2)c2c(N)ncnc21)C([2H])([2H])[2H] = 0.73

Print Ba/F3 FLT3-ITD cells (Homo sapiens, UniProt P36888, cells depend on it, form not given) GI50 for CC(C)n1nc(-c2ccc(CC(=O)Nc3cc(C(C)(C)C(F)(F)F)on3)cc2)c2c(N)ncnc21 .
0.31
